Parameter 'readout' = pKd; parameter 'system' = MDM2 (1–125) protein (Homo sapiens, UniProt Q00987).
Sequence (Q00987 1-125): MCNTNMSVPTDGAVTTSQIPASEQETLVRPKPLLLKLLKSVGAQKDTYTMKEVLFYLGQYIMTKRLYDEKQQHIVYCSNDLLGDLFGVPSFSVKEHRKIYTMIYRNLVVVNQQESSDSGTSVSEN
Where a SMILES comes first, the peptide text is derived from it. [ ]: non-standard residue; d: D form.
Give only the number. pKd is defined as minus log10 of concentration in molar units.

Worked cases, pKd given:
* CC(=O)N[C@H](C(=O)N[C@@H](CO)C(=O)N[C@@](C)(Cc1ccccc1)C(=O)N[C@]1(C)CCCCCCC=CCCC[C@@](C)(C(N)=O)NC(=O)[C@H](CC(C)C)NC(=O)[C@H](CC(C)C)NC(=O)[C@H](C)NC(=O)[C@H](Cc2c[nH]c3ccccc23)NC(=O)[C@H](Cc2ccc(O)cc2)NC(=O)[C@H](CCC(=O)O)NC1=O)[C@@H](C)O | 7.82
* CC(=O)N[C@@H](CC(C)C)C(=O)N[C@H](C(=O)N[C@@H](Cc1ccccc1)C(=O)NC(C)(C)C(=O)N[C@@H](CCC(=O)O)C(=O)N[C@@H](Cc1ccc(O)cc1)C(=O)N[C@@H](Cc1c[nH]c2ccccc12)C(=O)N[C@@H](CCC(N)=O)C(=O)N[C@@H](CC(C)C)C(=O)N[C@@H](CC1CCC1)C(=O)NC(C)(C)C(=O)N[C@@H](CO)C(=O)N[C@@H](C)C(=O)N[C@@H](C)C(=O)O)[C@@H](C)O | 7.06

Now consider the entry below.
Summary for this molecule, CC(=O)N[C@@H](CC(C)C)C(=O)N[C@H](C(=O)N[C@@H](Cc1ccccc1)C(=O)N[C@@H](CCC(=O)O)C(=O)N[C@@H](CCC(=O)O)C(=O)N[C@@H](Cc1ccc(O)cc1)C(=O)N[C@@H](Cc1c[nH]c2ccccc12)C(=O)N[C@@H](C)C(=O)N[C@H](CCC(N)=O)C(=O)N[C@@H](CC(C)C)C(=O)N[C@H](C(=O)N[C@@H](CO)C(N)=O)[C@@H](C)O)[C@@H](C)O [MP-793] (Ac-LTFEEYWA[dQ]LTS-NH2) : pKd is 6.94

---

- target-or-test-system: MDM2 (1–125) protein (Homo sapiens)
Where a SMILES comes first, the peptide text is derived from it. Bridges are numbered along the chain shown (N, C = ends). [ ]: non-standard residue; d: D form. dPhe(4-CF3) = N[C@H](Cc1ccc(C(F)(F)F)cc1)C(=O)O; dTrp(6-F) = N[C@H](Cc1c[nH]c2cc(F)ccc12)C(=O)O; R5 = C=CCCC[C@@](C)(N)C(=O)O; S5 = C=CCCC[C@](C)(N)C(=O)O
measured-quantity: Kd (nM)
The response must be a number in nM with no trailing unit.

For the compound CC(C)C[C@H]1NC(=O)[C@@H](CC(C)C)NC(=O)[C@@](C)(NC(=O)[C@@H](CCC(=O)O)NC(=O)[C@@H](Cc2ccc(C(F)(F)F)cc2)NC(=O)[C@@H](CC(N)=O)NC(=O)[C@@H](C)NC(=O)[C@@H](Cc2ccc(O)cc2)NC(=O)[C@@H](Cc2c[nH]c3cc(F)ccc23)NC(=O)[C@@H](C)NC(=O)[C@H](N)[C@H](C)O)CCCC=CCCC[C@](C)(C(N)=O)NC1=O [MP-313] (H-[dT][dA][dTrp(6-F)][dY][dA][dN][dPhe(4-CF3)][dE][S5][dL][dL][R5]-NH2; staple 9-12) , the measured Kd on MDM2 (1–125) protein (Homo sapiens) was 1.7
